- assay explanation: soluble on expression in E. coli; label from the status in PepcDB or PDB records

| record sequence | soluble on expression in E. coli |
| --- | --- |
| MSYYHHHHHHLESTSLYKKALAYTLPQLPYAYDALEPHIDARTMEIHHTKHHQTYVDNANKALEGTEFADLPVEQLIQQLDRVPADKKGALRNNAGGHANHSMFWQIMGQGQGQNGANQPSGELLDAINSAFGSFDAFKQKFEDAAKTRFGSGWAWLVVKDGKLDVVSTANQDNPLMGEAIAGVSGTPILGVDVWEHAYYLNYQNRRPDYLAAFWNVVNWDEVSKRYAAAK | soluble |
| MGNKLFVLDLGEIRVDENFIIANSTFVTPQKPTVSSRLIDIPVSAYLIQCTDATVLYDTGCHPECMGTNGRWPAQSQLNAPYIGASECNLPERLRQLGLSPDDISTVVLSHLHNDHAGCVEYFGKSRLIAHEDEFATAVRYFATGDHSSPYIVKDIEAWLATPRNWDLVGRDERERELAPGVNLLNFGTGHASGMLGLAVRLEKQPGFLLVSDACYTATNYGPPARRAGVLHDTIGYDRTVSHIRQYAESRSLTVLFGHDREQFASLIKSTDGFYE | soluble |
| MSVNMDELRHQVMINQFVLAAGCAADQAKQLLQAAHWQFETALSTFFQETNIPNSHHHH | soluble |

* * *

- assay explanation: soluble on expression in E. coli; label from the status in PepcDB or PDB records

| record sequence | soluble on expression in E. coli |
| --- | --- |
| MAHHHHHHMNKNFAQILEDFISDGSRKHRGHGDDGANEENVPHFINQDGSNLFNDDIGKKFEKKNFFKYTEYSLSSLYMSDNQIPLEEDPKFETFINVITKASDVNNEYKWVDDYFKFEVKEEMNILTPRSQDRDFLFRKYLQPNQLKNICLLRKYEQAAISKTPEKNKVDAKIVSEYIVHDSYRQIMKALNFKWSHRIFTKARIFHSKYGNSDHIVILVMRHYKDENFLHPLFHDRALVQIKSYLNDNKHADMTQKNLLNYTEVFKPYVSLRKVDSNFVEQIKDRYYGAF | soluble |
| SENDVIELDDVANLMFYGEGEVGDNHQKFMLIFDTGSANLWVPSKKCNSIGCSTKHLYDSSKSKSYEKDGTKVEITYGSGTVRGFFSKDLVTLGYLSLPYKFIEVTDTDDLEPLYTAAEFDGILGLGWKDLSIGSIDPIVVELKNQNKIDQALFTFYLPVHDKHSGYLTIGGIEEKFYEGELTYEKLNHDLFWQVDLDVNFGKTSMEKANVIVDSGTSTITAPTSFINKFFKDLNVIKVPFLPFYITTCNNKDMPTLEFKSANNTYTLEPEYYMEPLLDIDDTLCMLYILPVDIDKNTFILGDPFMRKYFTVFDYDKESIGFAVAKN | soluble |

* * *

- assay explanation: soluble on expression in E. coli; label from the status in PepcDB or PDB records
measure: soluble on expression in E. coli

The following sequences have reported results that may help.
| record sequence | soluble on expression in E. coli |
| --- | --- |
| MGSDKIHHHHHHMERLDVFDCSNVLIASYFTDDRGCAHENREHTLIYLCSGELEIEERGKKTVLHPGDCAFMRRDNRMWLQKKVEDGKPYRSVVLKFSRPFLREFYQTLNRQQIPTDSEREKVSLRVLPSNRPDIRSLFESVIPYFDAGEKPSEDVLKLKMVEGIYVLLNTDRNLYASLFDFVEPWKIDILDYLNENYMCDLSLEEIASYTGRSLATFKRDFAKVSNLTPQKWIVKRRLEAAHGLIKSGKKKVTEACFDVGFKNLSHFSKIYKEAYGVAPSW | not soluble |
| MSLISVIMPVYNCEKYLEESIESILKQTYRDFEFIIVNDGSNDKSIDIINKYANDDNRIVVVSRDNNMGMVYSLNEGIDRAKGSYVARMDADDIALPERFERQIEYLNKNKDVDILACKVEAFGDVSREQKLEREHWYNVDLNNSESIESLFLENCYIAHPSVMMKMSVLKALGGYNLNYKRTEDYNLWLRAIAKGYKIAMLEEKLMKIRLHNDSKIHRDAEGFSSIRDIIQSRLEYVKEKLKLKDFSYVIWGASNGGKIAYEKIKEVFPNAKLNGYIDKFKTGKFEGVDIFYPEDLSKMKVDYVFIATLPGCKEAKGILTKNNFVPIKDFLVLCEGHHHHHH | soluble |
| MLPEKSEIVVIGGGIVGVTIAHELAKRGEEVTVIEKRFIGSGSTFRCGTGIRQQFNDEANVRVMKRSVELWKKYSEEYGFSFKQTGYLFLLYDDEEVKTFKRNIEIQNKFGVPTKLITPEEAKEIVPLLDISEVIAASWNPTDGKADPFEATTAFAVKAKEYGAKLLEYTEVKGFLIENNEIKGVKTNKGIIKTGIVVNATNAWANLINAMAGIKTKIPIEPYKHQAVITQPIKRGTINPMVISFKYGHAYLTQTFHGGIIGGIGYEIGPTYDLTPTYEFLREVSYYFTKIIPALKNLLILRTWAGYYAKTPDSNPAIGRIEELNDYYIAAGFSGHGFMMAPAVGEMVAELITKGKTKLPVEWYDPYRFERGELRTAALQMG | soluble |
| MGSDKIHHHHHHMLNYSLRPENRGKNLESSWQYMFKTYPYLKPWIDSLKQNQALKDTFIYSPDHVKLHAYYVASSRPTAKTAVIVHGYTDNAIRMMMIGYLYNKKLDFNILLPDLRDTGLSGGNAIQMGWLDRKDVTQWMEVANRIYGDSTSMVVHGISMGAATTMMVSGEPQPDYVKCFVEDCGYTSVWDQFSKELKAQFGLPQFPLMYTADWLCQLEYGWGFKEASALKQVARCHLPMFFIHGDKDDYVPTWMVYKLYEAKPQPKALWIVPEADHAHSYLFNTEEYTQKVKAFVDKYIQ | not soluble |
| ADMEVIELNKCTSGQSFEVILKPPSFDGVPEFNASLPRRRDPSLEEIQKKLEAAEERRKYQEAELLKHLAEKREHEREVIQKAIEENNNFIKMAKEKLAQKMESNKENREAHLAAMLERLQEKDKHAEEVRKNKELKEEASR | soluble |
| MGSDKIHHHHHHMTHQANDAVAPASGMIELSHSFDANRFLAAVDRDERATLIANLQLVHLKSGQVLCEPGEMLTAVYLPVTTAISLQYVSTGGMTLEVAQIGSESVVCDDVIGGSGRMPCRAVACRDGFVYRLDRRIFAAAFDASPVIRHLVFVCVRLLMAQVAQITFCSRHHVLKHQLCRWFLLAYDRSRSIEIQVTHSMLAQMLGVRRETVTDAAGEIQRLGLIRQYRSSIVLADLAGLEKLSCGCRAIVRDEMKRILSADSGVSAAARA | not soluble |
| MGSDKIHHHHHHMFKNVSWKLKEHSELKKYGIDHNILLDVVSRERRKIYFDYWKNLPKLVTSSLGLKFTDGTPVDALYEVFIEGIYDVDGFRPKMGDVVVDVGANYGDSSIWWAKKKFGAKVIAFEPLADVFHELEKNIRINHADVIAYNVALGNGNFINGSKQGNMFVAGGQAKIQTSRLDDYTFDRLDLLKIDVEGFEHDVLLGARSTISKFKPKIIIETHSVALRKLCHEFLISLGYSLSLEGRTIRAHSPGMDKVTNLFYSPII | not soluble |
| MSLNLSFAAIDFETATGYMESACAVGIVTVTDGEITDEYYSLIQPPENEYWRANMLVHGITPGMTESLPGFHAIYPEVKKRLQGNVVVAHNEQFDRNVLKNTMRMYGLDYDELSLPERWECTCRIYRSLGYKPVNLSACCEREGIELKHHEALSDARGCAKLYLNFLEKYRPLSTEGHHHHHH | soluble |
| VRQYGDMPSRVVVLHGGPGGAGEVEPLARELGNRGHAVLEPFQTCQTVGGQVDELSSHIERFCAPPVTVIGWSWGAWLGCLLAAQRGMLVRRLILVGSGPFEESYASAIRTTKNSRLTKDQRKEISQLRPTEGDPAEVARFIALSDIADTYARDTSQQPFVAFDGAIHAAVWAEAVDMRRNGALLEAVCAIRCPVVAIHGDYDPRPSEGVQIPLRAALPSADFVQLERCGHKPWQETFAKADFYRALEA | not soluble |
| MGSDKIHHHHHHMRTFQYANANPSANVSPMGRTSLATSAAKARGPLNGLIAERMRQLNLSTVKDFADYAGIGRTSIHDLVRGRTTTSGTWTKPSFDTLTKLAVALDKPTHELLYLIDPEAPGANLMFDVQQVPVYIAGQVGAGPQQLWESSDVVYVERQFAENRDLIAFTVVGDSMAGGRHPIHDGDVVIVDQRVGGEVNFPVVARLKDDGHVVKRCGPAASSTAPTRTSWTLTPQSLPLTVSPTWWDASSG | not soluble |

Please turn your attention to the following entry.
[in] I'd like to know its soluble on expression in E. coli. The sequence in question is `GSSGSSGMCGRFAQSQTREDYLALLAEDIERDIPYDPEPIGRYNVAPGTKVLLLSERDEHLHLDPVFWGYAPGWWDKPPLINARVETAATSRMFKPLWQHGRAICFADGWFEWKKEGDKKQPFFIYRADGQPIFMAAIGSTPFERGDEAEGFLIVTAAADQGLVDIHDRRPLVLSPEAAREWMRQEISGKEASEIAASGCVPANQFSWHPVSRAVGNVKNQGAELIQPV`
[out] soluble

Hello, the source for this data is the DeepSol protein solubility set, in case you need it.
